The reported numbers originate from patent US5212165A.

# System: phenylephrine-contracted isolated iliac arteries
# method description: Acetylcholine-induced relaxation of phenylephrine-contracted isolated iliac arteries from cynomolgus monkeys
# Parameters: species or system cynomolgus (Macaca fascicularis) monkeys
# condition info: Macaca fascicularis, Control group; N 4; non-responder excluded; Mean ± SEM
pEC50: −log10 of the molar value.

>  <line notation>
CC(=O)OCC[N+](C)(C)C

>  <pEC50>
6.52

$$$$
